Measured Ki (Sodium-dependent dopamine transporter (Rattus norvegicus))
The answer is to be given in nM; state only the numeric part.

Hey, Sodium-dependent dopamine transporter (Rattus norvegicus) data for CN1C2C[C@H](OC(c3ccc(F)cc3)c3ccc(F)cc3)CC1[C@@H](C(=O)OCc1ccccc1)C2 (some centres undefined) : Ki came out at 119

Hey, Sodium-dependent dopamine transporter (Rattus norvegicus) data for CN1C2C[C@H](OC(c3ccc(F)cc3)c3ccc(F)cc3)CC1[C@@H](C(=O)OCCc1ccccc1)C2 (some centres undefined) : Ki came out at 171

Hey, Sodium-dependent dopamine transporter (Rattus norvegicus) data for CN1C2CC(OC(c3ccc(F)cc3)c3ccc(F)cc3)CC1[C@@H](O)C2 (some centres undefined) : Ki came out at 6.28

Hey, Sodium-dependent dopamine transporter (Rattus norvegicus) data for O=C(Oc1ccccc1)[C@H]1CC2C[C@H](OC(c3ccc(F)cc3)c3ccc(F)cc3)CC1N2 (some centres undefined) : Ki came out at 175
